Biological target: Thermo Sequenase (Thermus aquaticus, UniProt P19821, F272M/F667Y)
Sequence (P19821 272-832 F272M/F667Y): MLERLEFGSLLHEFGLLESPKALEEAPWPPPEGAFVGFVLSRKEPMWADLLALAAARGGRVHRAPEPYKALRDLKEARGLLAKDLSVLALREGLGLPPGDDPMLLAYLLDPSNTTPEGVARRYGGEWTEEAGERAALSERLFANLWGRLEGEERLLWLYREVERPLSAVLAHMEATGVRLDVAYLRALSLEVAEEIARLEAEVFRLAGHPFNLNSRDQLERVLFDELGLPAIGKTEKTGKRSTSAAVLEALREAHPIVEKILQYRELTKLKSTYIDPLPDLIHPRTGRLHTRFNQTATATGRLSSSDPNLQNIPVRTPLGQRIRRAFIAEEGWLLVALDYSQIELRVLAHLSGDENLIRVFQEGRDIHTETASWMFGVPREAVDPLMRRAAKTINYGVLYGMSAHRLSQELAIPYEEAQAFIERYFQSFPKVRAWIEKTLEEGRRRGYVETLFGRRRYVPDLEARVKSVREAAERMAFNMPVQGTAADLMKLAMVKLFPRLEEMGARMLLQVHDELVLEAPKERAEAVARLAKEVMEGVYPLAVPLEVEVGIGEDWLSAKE
Conditions: read-out: concentration that produces the half maximum fluorescent intensity; 0.3 μM single fluorescein labeled self-primed template, 10 pH dCTP, ddCTP 0 to 10 μM
pIC50: −log10 of the molar value.
MEASURED ATTRIBUTE: pIC50

*Q* For Nc1ccn([C@H]2CC[C@@H](COP(=O)(O)OP(=O)(O)OP(=O)(O)O)O2)c(=O)n1 , what is its reported pIC50?
*A* ~6.30
